Listed below: % cyproconazole in solution values for each entry.
- Assay summary: Solubility of cyproconazole in solvent (saturated solution, HPLC)
- Assay type: physicochemical
Readout: % cyproconazole in solution

[[record]]
compound = "CCCCN(C)C(=O)C(C)O (centres unmarked) [N-methyl-N-butyl lactamide]"
observed_result = "33.0% w/w"

[[record]]
compound = "CCCN(C)C(=O)C(C)O (centres unmarked) [N-methyl-N-propyl lactamide]"
observed_result = "27.3% w/w"

[[record]]
compound = "CCN(CCO)C(=O)C(C)O (centres unmarked) [N-ethyl-N-2-hydroxyethyl lactamide]"
observed_result = "18.2% w/w"

[[record]]
compound = "CC(O)C(=O)N(CCO)Cc1ccccc1 (centres unmarked) [N-hydroxyethyl-N-benzyl lactamide]"
observed_result = "25.0% w/w"

[[record]]
compound = "CC(C)CCC(C)NC(=O)C(C)O (centres unmarked) [N-1,4-dimethylpentyl lactamide]"
observed_result = "10.5% w/w"


Data origin, for the record: patent US8420859B2
